From: patent US20230227466A1

Listed below: inhibition at 20 µM values for each entry.
Tgt: UniProt P01116
Method notes: Ras GTP binding domain inhibition assay (labeled-GTP competition, cell-free)
Set-up: made in house
Applied conditions: with SOS, read-out: KRas wild type + SOS: % inh.

Exam item: Look up inhibition at 20 µM with UniProt P01116 for this compound: COc1cc(Nc2nc(-c3nccn3C)nc3sc(-c4ccn(C(C)C)n4)c(C)c23)ccn1 [Compound 67]
Marked response: 51 to 75%

Exam item: # repeat for CO[C@H]1CC[C@@H](Nc2nc(-c3nccn3C)nc3sc(-c4ccn(C(C)C)n4)c(C(F)(F)F)c23)C1 (racemic) [Compound 73]
Marked response: 76 to 100%

Exam item: # repeat for O=C(Nc1ccccn1)c1nc(O)c2scc(-c3ccccn3)c2n1 [Compound 24]
Marked response: 1 to 25%

Exam item: # repeat for CO[C@H]1CC[C@@H](Nc2nc(-c3ccccn3)nc3sc(-c4ccn(C(C)C)n4)c(C)c23)C1 (racemic) [Compound 69]
Marked response: 51 to 75%

###

Tgt: UniProtKB P63000
Method notes: Ras GTP binding domain inhibition assay (labeled-GTP competition, cell-free)
Set-up: made in house
Applied conditions: without SOS, read-out: Rac-1: % inh.
Listed below: inhibition at 20 µM values for each entry.

- Compound: "Cc1c(-c2ccn(C(C)C)n2)sc2nc(-c3nccn3C)nc(NCc3ncc[nH]3)c12 [Compound 57]"
  inhibition at 20 µM: "0%"
- Compound: "COCC1COCCN1c1nc(-c2nccn2C)nc2sc(-c3ccn(C(C)C)n3)c(C)c12 (racemic) [Compound 41]"
  inhibition at 20 µM: "76 to 100%"

Kindly consider the entry below.
Exam item: So what's the measured inhibition at 20 µM for this one? CO[C@H]1CC[C@@H](Nc2nc(-c3nccn3C)nc3sc(-c4cn(C)cn4)c(-c4ccccc4)c23)C1 (racemic) [Example 3]
Marked response: 76 to 100%

###

Test system: MIA-PaCa-2 pancreatic cancer cell line (KRAS G12C)
Method notes: Cell proliferation assay (CellTiter 96 Aqueous One)
Assay type: cell-based
Applied conditions: Homo sapiens, MIA PaCa-2, MIA PaCa-2
Measurement type: IC50

Here is how some molecules turned out for IC50.
- Molecule: "Cn1nccc1-c1nc(O)c2scc(-c3ccccn3)c2n1 [Compound 91]"
  IC50: "> 10 µM"
- Molecule: "CO[C@H]1CC[C@@H](Nc2nc(C(=O)Nc3ccccc3)nc3sccc23)C1 (racemic) [Compound 15]"
  IC50: "> 10 µM"
- Molecule: "CC(C)NC(=O)c1nc(O)c2scc(-c3ccccn3)c2n1 [Compound 20]"
  IC50: "> 10 µM"
- Molecule: "CO[C@H]1CC[C@@H](Nc2nc(-c3nccn3C)nc3sc(-c4ccn(C(C)C)n4)c(C)c23)C1 [Compound 32]"
  IC50: "< 1 µM"
- Molecule: "COCC1CN(c2nc(-c3nccn3C)nc3sc(-c4ccn(C(C)C)n4)c(C)c23)CCO1 (racemic) [Compound 45]"
  IC50: "5 to 10 µM"
- Molecule: "CO[C@H]1CC[C@@H](Nc2nc(-c3nccn3C)nc3sc(-c4cn(C)cn4)c(-c4ccccc4)c23)C1 (racemic) [Example 3]"
  IC50: "1 to 4.99 µM"

Exam item: Look up IC50 with MIA-PaCa-2 pancreatic cancer cell line (KRAS G12C) for this molecule: COCC1CCN(c2nc(-c3nccn3C)nc3sc(-c4ccn(C(C)C)n4)c(-c4ccccc4)c23)C1 (racemic) [Compound 76]
Marked response: < 1 µM

Exam item: # repeat for COc1ccn2c(-c3nc(O)c4scc(-c5ccccn5)c4n3)ncc2c1 [Compound 85]
Marked response: 5 to 10 µM

Exam item: # repeat for Cn1ccnc1-c1nc(O)c2scc(-c3ncccc3F)c2n1 [Compound 30]
Marked response: > 10 µM

###

Tgt: KRas G12D mutant (Homo sapiens, UniProt P01116, G12D)
Construct: made in house
Method notes: Ras GTP binding domain inhibition assay (labeled-GTP competition, cell-free)
Applied conditions: without SOS, read-out: KRas G12D mutant: % inh.
Measurement type: inhibition at 20 µM

Exam item: So what's the measured inhibition at 20 µM for this one? CO[C@@H]1CC[C@@H](Nc2nc(-c3nccn3C)nc3sc(-c4ccn(C(C)C)n4)c(C)c23)C1 (racemic)
Marked response: 51 to 75%

Exam item: # repeat for O=C(c1nc(O)c2scc(-c3ccccn3)c2n1)N1CCOCC1
Marked response: 1 to 25%

Exam item: # repeat for CO[C@H]1CC[C@@H](Nc2nc(-c3nccn3C)nc3sc(-c4ccn(C(C)C)n4)c(C)c23)CC1
Marked response: 51 to 75%

###

Tested on: MIA-PaCa-2 pancreatic cancer cell line (KRAS G12C)
Method notes: Cell proliferation assay (CellTiter 96 Aqueous One)
Format: cell-based
Applied conditions: Homo sapiens, MIA PaCa-2, MIA PaCa-2
Measurement type: IC50

Here is how some compounds turned out for IC50.
- Compound: "CO[C@H]1CC(Nc2nc(-c3nccn3C)nc3sc(-c4ccn(C(C)C)n4)c(C)c23)C[C@@H]1OC (racemic)"
  Measurement type: "IC50"
  Result: "1 to 4.99 µM"
- Compound: "Cc1c(-c2ccn(C(C)C)n2)sc2nc(-c3nccn3C)nc(NC[C@H]3CCC(=O)N3)c12"
  Measurement type: "IC50"
  Result: "> 10 µM"

Exam item: So what's the measured IC50 for this one? O=C(c1nc(O)c2scc(-c3ccccn3)c2n1)N1CCOCC1
Marked response: > 10 µM

Exam item: # repeat for CO[C@H]1CC[C@H](Nc2nc(-c3nccn3C)nc3sc(-c4ccn(C(C)C)n4)c(C)c23)CC1
Marked response: < 1 µM

Exam item: # repeat for COc1cccn2c(-c3nc(O)c4scc(-c5ccccn5)c4n3)ncc12
Marked response: 5 to 10 µM

###

Tgt: KRas G12D mutant (Homo sapiens, UniProt P01116, G12D)
Construct: made in house
Method notes: Ras GTP binding domain inhibition assay (labeled-GTP competition, cell-free)
Applied conditions: without SOS, read-out: KRas G12D mutant: % inh.
Listed below: inhibition at 20 µM values for each entry.

- Compound: "COC1CCCN(c2nc(-c3nccn3C)nc3sc(-c4ccn(C(C)C)n4)c(C)c23)C1 (racemic)"
  inhibition at 20 µM: "26 to 50%"
- Compound: "CO[C@H]1CN(c2nc(-c3nccn3C)nc3sc(-c4ccn(C(C)C)n4)c(C)c23)C[C@H]1OC"
  inhibition at 20 µM: "51 to 75%"
- Compound: "COc1ccn2c(-c3nc(O)c4scc(-c5ccccn5)c4n3)ncc2c1"
  inhibition at 20 µM: "51 to 75%"
- Compound: "COc1nc(-c2nccn2C)nc2c(-c3ncccc3F)csc12"
  inhibition at 20 µM: "76 to 100%"

Exam item: So what's the measured inhibition at 20 µM for this one? COCCn1c(-c2nc(O)c3scc(-c4ccccn4)c3n2)nc2ccccc21
Marked response: 51 to 75%
